Reference source for all entries: PubChem BioAssay (NCI)

tested on: HS 578T breast; assay: NCI-60 one-dose screen, 48 h (100 = growth as untreated, 0 = no growth, -100 = all killed); conditions: 10 µM
About 83,000 compounds went through this panel and 20% of them were active in at least one assay; those are over-represented in the sample as a whole.
Record MET whenever growth is at 50% or higher; record NOT MET when lower.

Examples with answers:
- CN1CCN(c2ccc(Nc3nc(NCCNC(=O)c4ccc(C(F)(F)F)cc4)c4sccc4n3)cc2)CC1: NOT MET
- O=C1CCC(N2Cc3c(NCc4ccc(-c5ccccc5)cc4)cccc3C2=O)C(=O)N1 (stereo not drawn): MET
- O=C(CNc1nc(-c2ccccc2)cs1)Nc1cccc([N+](=O)[O-])c1: NOT MET
- COc1ccc(/C(CSc2nnc(-c3c[nH]c4ccccc34)n2-c2ccccc2)=N/O)cc1: NOT MET
- C=C[C@@]12CN3CC[C@]1(O)[C@@](C(=O)OC)(CO2)c1[nH]c2ccccc2c1C3: MET
- N#Cc1ccc(-c2nn(-c3ccc(C(=O)O)cc3)cc2CNc2cccc(Br)c2)cc1: MET

Determine whether measured growth meets or exceeds 50% for CNCc1cccc2c1OCCCCCC[C@@](C)(O)CC1(CC1)S(=O)(=O)c1ccc(cc1)-c1cnc(N)c(n1)C(=O)N2
NOT MET

Say whether O=C(c1ccc(Cl)cc1)C1[C@H](c2ccccc2Br)[C@@H](c2ccccc2)NC12C(=O)Nc1ccccc12 (stereo partly drawn) shows growth of 50% or more.
NOT MET

API: above_or_equal(metric=growth, cutoff=50%) for item CC1(C)CC[C@]23CC[C@]4(C)[C@H](CC[C@@H]5[C@@]6(C)CC[C@H](N)C(C)(C)[C@@H]6CC[C@]54C)[C@H]2[C@H]1OC3=O
NOT MET

###

Test system: HOP-92 NSCLC
Experiment: NCI-60 one-dose screen, 48 h (100 = growth as untreated, 0 = no growth, -100 = all killed)
Settings: 10 µM
Protocol: Growth inhibition of the HOP-92 human Non-Small Cell Lung tumor cell line is measured as a screen for anti-cancer activity. Cells are grown in 96 well plates and exposed to the test compound for 48 hours. Compounds are tested at a single concentration, which is 10^-5 M for most compounds. The reported endpoint is percent growth (GI% or GIPRCNT), where numbers from 0 - 100% represent growth inhibition, and numbers from -100% - 0 represent cell death. […]
About 83,000 compounds went through this panel and 20% of them were active in at least one assay; those are over-represented in the sample as a whole.
REPORTED ENDPOINT: growth (%)
Please state the figure in %; there is no need to write the unit.

Solved entries:
- COc1cc2c3c(n(CCCN4CCOCC4)c(=O)c2cc1OC)-c1nc2c(cc1C3=O)OCO2: -2.4
- Cc1ccc(/C=C/C(=O)c2ccc(S(=O)(=O)NCCNc3nc(Nc4ccc(F)cc4)nc(N(C)C)n3)cc2)cc1: -18.2

Documented growth of O=C(Nc1cccc(-c2cn(-c3ccc4oc(=O)ccc4c3)nn2)c1)Nc1cc(C(F)(F)F)cc(C(F)(F)F)c1 : -28.1

###

tested on: HCT-116 colon; assay: NCI-60 one-dose screen, 48 h (100 = growth as untreated, 0 = no growth, -100 = all killed); conditions: 10 µM
This is part of a sample that, as a whole, favours compounds with a hit. Of some 83,000 tested, about 20% had one in any assay.
Listed molecules paired with reported growth
Quick note: give the figure in %, leave out the unit.

These recorded examples may help you get a feel for the data.
• O=c1oc2ccc(-c3ccc(F)cc3F)cc2c(=O)n1-c1ccc(F)cc1 = 8.96
• NS(=O)(=O)c1ccc(N=Nc2c(O)n(CC(=O)Nc3ccccc3Br)c3ccccc23)cc1 = 21.4
• N[C@@H](CSSC[C@H](N)C(=O)Nc1ccc(OCC2CCCC2)cc1)C(=O)Nc1ccc(OCC2CCCC2)cc1 = -35.9
• Cc1ccc2nc(-c3ccc(-c4nnc(SCC(=O)Nc5ccc(Br)cc5)o4)cc3)[nH]c2c1 = 67.4

growth reading for Brc1ccc(/C=C/c2n(Cc3ccc4ccccc4c3)c3ccccc3[n+]2Cc2ccc3ccccc3c2)cc1 : -86.5

Short answer for Cc1ccc(C(=O)Nc2ccc(-n3c(C)nc4c(cnn4-c4ccccc4)c3=O)cc2)cc1 : growth was 51.5

The value of growth measured for the molecule O=C(c1ccc(Cl)cc1)C1[C@H](c2ccccc2Br)[C@@H](c2ccccc2)NC12C(=O)Nc1ccc(Br)cc12 (stereo partly drawn) turned out to be 3.99

The molecule listed as CN(CCF)c1ccc(/C=C/C(=O)c2ccc(N)cc2O)cc1 shows growth equal to 73

// recorded growth for O=c1[nH][nH]c(Nc2ccccc2)c1N=Nc1ccc(F)cc1 : 87

Documented growth of O=C(CSc1nnc(-c2c[nH]c3ccccc23)n1-c1ccccc1)c1ccc(Br)cc1 : 54.3

growth measured on COc1ccc(/C=C/C(=O)c2ccc(NC(=O)CN3C(=O)NC(C)(c4ccccc4)C3=O)cc2)cc1 (stereo not drawn) = 12.8

###

test system: KM12 colon; assay: NCI-60 one-dose screen, 48 h; settings: 10 µM
This is part of a sample that, as a whole, favours compounds with a hit. Of some 83,000 tested, about 20% had one in any assay. The source made the active and inactive calls. Rule for the calls: active = growth percent below 10; inactive = the rest.
Please answer using one outcome listed in True = active, False = inactive

* CN1CCN(Cc2ccc(C(=O)Nc3cccc(Nc4ccc5c(O)cccc5n4)c3)cc2C(F)(F)F)CC1 | True
* COc1ccc(C(C)=C(c2ccc(OCCCN(C)C)cc2)c2ccc(OCCCN(C)C)cc2)cc1 | True
* O=C(c1ccc(Cl)cc1)C1[C@H](c2ccc(Br)cc2)[C@@H](c2ccccc2)NC12C(=O)Nc1ccc(Br)cc12 (stereo partly drawn) | True
* Cc1ccc(-c2cc(C(=O)N=Nc3c(O)[nH]c4ccccc34)c3ccccc3n2)cc1 | False
* O=C(c1ccc(O)cc1)C1[C@H](c2ccccc2Br)[C@@H](c2ccccc2)NC12C(=O)Nc1ccc(Cl)cc12 (stereo partly drawn) | True

What is the recorded call for this compound in the test? CCOP(=O)(OCC)O[C@H]1CCC(=O)[C@@H]2[C@H]1[C@H]1C[C@@H]3[C@@]4(C)CCCC(C)(C(=O)OC)[C@@H]4CC[C@@]23C=C1C(C)C (stereo partly drawn)
False

What did this assay record as the result for CCCCSc1nc(Nc2ccc(/C(C)=N/NC(N)=S)cc2)c(C#N)c(-c2ccccc2)n1 ?
False

What was the test verdict on CC1(c2ccccc2)NC(=O)N(CC(=O)Nc2ccc(C(=O)/C=C/c3ccc(Cl)cc3)cc2)C1=O (stereo not drawn) ?
True

###

test system: T-47D breast; test: NCI-60 one-dose screen, 48 h; settings: 10 µM
Compounds without any hit were thinned out: in the full panel of roughly 83,000, 20% have a hit. Active and inactive are the calls of the source. The calls were made as follows: active = growth percent below 10; inactive = the rest.
Select the matching outcome among active, inactive

Use these answered entries as a reference point.
- Cc1cc(C)nc(NS(=O)(=O)c2ccc(N/C(N)=N/c3nccc(-c4cccs4)n3)cc2)n1: inactive
- C/C(=C\CSc1ccccc1C(=O)O)CCCC(C)CCCC(C)CCCC(C)C (centres undefined): inactive

Please indicate how the test categorized C=C(C)[C@@H]1CC[C@]2(COP(=O)(OCC)OCC)CC[C@]3(C)[C@H](CC[C@@H]4[C@@](C)(CCCN)[C@H](C(=C)C)CC[C@]43C)[C@@H]12 .
inactive

Given NS(=O)(=O)c1ccc(N=Nc2c(O)n(CC(=O)Nc3ccccc3Br)c3ccccc23)cc1 , state the outcome it received in this test.
inactive

I'd appreciate the recorded outcome for CC(=O)Oc1ccccc1C(=O)Oc1ccc(C(=O)/C=C/c2ccncc2)cc1 from this test.
inactive

###

tested on: KM12 colon; assay: NCI-60 one-dose screen, 48 h (100 = growth as untreated, 0 = no growth, -100 = all killed); conditions: 10 µM
About 83,000 compounds went through this panel and 20% of them were active in at least one assay; those are over-represented in the sample as a whole.
REPORTED ENDPOINT: growth (%)
Note: unit % is implicit; provide only the numeric part.

See these solved cases before continuing.
- O=C(O)CCCCCCCCCCN1C(=O)/C(=C/c2cnc(-c3ccccc3)s2)SC1=S: 24.6
- COc1ccc(-c2nc(S(=O)(=O)c3ccc(C)cc3)c(S(C)(=O)=O)o2)cc1: -19
- Cc1ccc(C(C)C)cc1NC(=O)c1ccccc1O: 48.5
- CNC(=O)c1cc(-c2ccc(NC(=O)Nc3ccc(C)cc3)cc2)nc2cccnc12: 102
- Cc1ccc([N+](=O)[O-])c(C(=O)Nc2ccc(-c3ccc4c(c3)NC(=O)/C4=C\c3ccc[nH]3)cc2)c1: -10.9
- Cc1ccc(-c2cc(-c3cc4ccccc4nc3Cl)[nH]c(=S)n2)cc1: 61.6
- N#Cc1c(NC(=O)c2ccc(C(F)(F)F)cc2C(F)(F)F)sc2c1CCC(=O)C2: -34.2
- COc1ccc2[nH]c(O)c(N=NC(=O)COc3ccc(NC(=O)Nc4ccc(Cl)cc4)cc3)c2c1: 4.25

Measured on KM12 colon, CC(C)C(=O)Nc1ccc(C(=O)NC(=S)Nc2ccc(C(=O)O)cc2)cc1 has a documented growth of 106

# growth measured on KM12 colon for item CN1CCO/C1=C(/NC(=O)c1ccc(Cl)cc1)[P+](c1ccccc1)(c1ccccc1)c1ccccc1 = 64.5
